# Assay Name: Oral bioavailability by urinary excretion method (Example M)
# Assay type: in vivo
# Reported Conditions: oral gavage 20 or 40 mg/kg parent equivalents; 24 h urine vs i.v. parent ~10 mg/kg; rat
Observable: % OBAV Prodrug (%)
Entry rule: numbers only, all in %.

Some solved cases for reference:
Annotate the molecule CC(=O)N[C@@H]1COP(=O)(c2ccc(-c3nc4ccc(Cl)cc4n3CC(C)C)o2)O[C@H]1c1ccc([N+](=O)[O-])cc1 (stereo partly shown) with its measured % OBAV Prodrug.
8.7

Supply % OBAV Prodrug value. Item: CC(C)Cn1c(-c2ccc(P3(=O)OCCC(c4ccc(F)cc4)O3)o2)nc2ccc(Cl)cc21 (stereo not shown)
2.4

Please report the measured % OBAV Prodrug for COC(=O)OCC1COP(=O)(c2ccc(-c3nc4ccc(Cl)cc4n3CC(C)C)o2)OC1 (stereo not shown)
14.1

Now for another entry.
Item CC(C)Cn1c(-c2ccc(P3(=O)OCC(CO)CO3)o2)nc2ccc(Cl)cc21 (stereo not shown) : provide % OBAV Prodrug
10.9
